Test system: C. parapsilosis MMX 2323 ATCC 22019
Assay: MIC assay (CLSI microdilution)
Format: cell-based, Candida parapsilosis
Conditions: ATCC22019, Without Tween-80; read-out: MIC
Numbered stars: 1 amine (or outer) side, 2 acyl side, 3 side chain; on linkers, the order of the positions; unused ones are H or OH. Square brackets hold non-standard residues; d marks the D form. Peptide text beside a SMILES is read from it. X4 = CN1CCN(c2cc(-c3cccc(C[C@@H](C(=O)[*:2])N(C)[*:1])c3)ccn2)CC1; X30 = CN([C@@H](Cc1cccc(-c2ccc(Cl)c(Cl)c2)c1)C(=O)[*:2])[*:1]; X29 = CN([C@@H](Cc1cccc(-c2ccc(F)cc2)c1)C(=O)[*:2])[*:1]; Hmp(2R,3S) = CC[C@H](C)[C@@H](O)C(=O)O; NMeVal(β-OH) = CN[C@H](C(=O)O)C(C)(C)O; NMeV = CN[C@H](C(=O)O)C(C)C
In this section, each of the compounds is paired with its reported MIC.
Express your answer in µg/mL, writing the number without its unit.

COMPOUND: CC[C@H](C)[C@@H]1NC(=O)[C@@H]2CCCN2C(=O)[C@H](Cc2cccc(-c3ccc(Cl)c(Cl)c3)c2)N(C)C(=O)[C@H](Cc2ccccc2)NC(=O)[C@H](C(C)C)N(C)C(=O)[C@@H]([C@@H](C)CC)OC(=O)[C@H](C(C)(C)O)N(C)C(=O)[C@H](CC(C)C)NC(=O)[C@H](C(C)C)N(C)C1=O [Compound 2] (cyclo(F[X30]PI[NMeV]L[NMeVal(β-OH)][Hmp(2R,3S)][NMeV]))
RESULT_UNIT: µg/mL
MIC: 2
--
COMPOUND: CC[C@H](C)[C@@H]1NC(=O)[C@@H]2CCCN2C(=O)[C@H](Cc2cccc(-c3ccnc(N4CCN(C)CC4)c3)c2)N(C)C(=O)[C@H](Cc2ccccc2)NC(=O)[C@H](C(C)C)N(C)C(=O)[C@@H]([C@@H](C)CC)OC(=O)[C@H](C(C)(C)O)N(C)C(=O)[C@H](CC(C)C)NC(=O)[C@H](C(C)C)N(C)C1=O [Compound 15] (cyclo(F[X4]PI[NMeV]L[NMeVal(β-OH)][Hmp(2R,3S)][NMeV]))
RESULT_UNIT: µg/mL
MIC: 0.5

Proceeding to the next compound to report its MIC.
Query: Which MIC value belongs to CC[C@H](C)[C@@H]1NC(=O)[C@@H]2CCCN2C(=O)[C@H](Cc2cccc(-c3ccc(F)cc3)c2)N(C)C(=O)[C@H](Cc2ccccc2)NC(=O)[C@H](C(C)C)N(C)C(=O)[C@@H]([C@@H](C)CC)OC(=O)[C@H](C(C)(C)O)N(C)C(=O)[C@H](CC(C)C)NC(=O)[C@H](C(C)C)N(C)C1=O [Compound 1] (cyclo(F[X29]PI[NMeV]L[NMeVal(β-OH)][Hmp(2R,3S)][NMeV])) ?
Response: 1
